The molecules listed here are annotated with their pEC50.
Tested on: Coxsackievirus B4
Procedure summary: Antiviral activity against Human coxsackievirus B4 infected in african green monkey Vero cells by after 24 to 36 hrs MTS-based CPE reduction assay
Type: functional, organism-based
Test parameters: Enterovirus B
Give only the number. pEC50 is defined as minus log10 of concentration in molar units.

For orientation, consider the following solved cases.
Smiles input: CN(C)c1ccc(C(=O)NNc2c(Br)cccc2Br)cc1
Recorded endpoint: pEC50
Data value: 6.47

Smiles input: CN(C)c1ccc(C(=O)NNc2c(Cl)cccc2Cl)cc1
Recorded endpoint: pEC50
Data value: 5.59

Smiles input: CC(C)(C)c1ccc(C(=O)NNc2c(Br)cccc2Br)cc1
Recorded endpoint: pEC50
Data value: 5.19

Switching to the query record.
Reported pEC50 for Cc1cccc(C)c1NNC(=O)c1ccc(C(C)(C)C)cc1 was 5.25
